The entries below come with measured Ki values attached.
target: Muscarinic acetylcholine receptor M4 (Homo sapiens, UniProt P08173)
Sequence (P08173 whole entry): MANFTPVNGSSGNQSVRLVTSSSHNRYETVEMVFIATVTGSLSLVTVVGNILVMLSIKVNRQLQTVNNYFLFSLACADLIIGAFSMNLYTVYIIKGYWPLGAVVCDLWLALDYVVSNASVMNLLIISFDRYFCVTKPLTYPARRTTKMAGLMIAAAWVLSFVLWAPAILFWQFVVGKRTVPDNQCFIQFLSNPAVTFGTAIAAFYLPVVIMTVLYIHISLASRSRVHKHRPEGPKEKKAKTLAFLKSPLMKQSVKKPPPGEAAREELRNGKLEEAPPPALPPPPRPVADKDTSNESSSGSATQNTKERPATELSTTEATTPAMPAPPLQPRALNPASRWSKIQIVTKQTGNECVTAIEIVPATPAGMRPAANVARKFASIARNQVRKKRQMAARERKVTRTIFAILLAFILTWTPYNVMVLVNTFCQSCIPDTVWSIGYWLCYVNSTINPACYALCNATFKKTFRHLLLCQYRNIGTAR
Give your result in nM as a bare value.

Input line: For the molecule shown here, C[N+]1(C)CCN(CC(O)(c2ccccc2)C2CCCCC2)CC1 (configuration not stated) , give the reported Ki.
Output line: 5.5

Input line: For the molecule shown here, C[N+]1([SiH3])CCN(CC(O)(c2ccccc2)C2CCCCC2)CC1 (configuration not stated) , give the reported Ki.
Output line: 3.2

###

target: Muscarinic acetylcholine receptor M1 (Rattus norvegicus, UniProt P08482)
Sequence (P08482 whole entry): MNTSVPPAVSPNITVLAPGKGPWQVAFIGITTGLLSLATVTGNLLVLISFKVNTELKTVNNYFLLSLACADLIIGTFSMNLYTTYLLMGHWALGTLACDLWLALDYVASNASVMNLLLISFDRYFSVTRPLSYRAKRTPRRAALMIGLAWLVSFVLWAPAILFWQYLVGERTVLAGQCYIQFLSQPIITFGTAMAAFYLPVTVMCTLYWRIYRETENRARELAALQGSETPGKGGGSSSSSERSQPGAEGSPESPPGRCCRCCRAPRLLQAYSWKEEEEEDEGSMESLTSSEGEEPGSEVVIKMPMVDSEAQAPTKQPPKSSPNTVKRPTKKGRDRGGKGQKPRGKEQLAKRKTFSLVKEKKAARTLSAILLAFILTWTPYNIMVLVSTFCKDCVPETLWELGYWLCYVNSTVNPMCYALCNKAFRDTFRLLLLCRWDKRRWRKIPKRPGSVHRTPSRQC
quantityKind: Ki
Returns: string containing the numeric result and its unit.

// worked examples, Ki included
C[N+]1([SiH3])CCN(CC(O)(c2ccccc2)C2CCCCC2)CC1 (centres undefined)
2 nM
O[Si](CCCN1CCCCC1)(c1ccccc1)C1CCCCC1 (centres undefined)
44 nM
C[N+]1(C)CCN(CC(O)(c2ccccc2)C2CCCCC2)CC1 (centres undefined)
2.3 nM

Please turn your attention to the following entry.
Input line: For the molecule shown here, OC(CCCN1CCCCC1)(c1ccccc1)C1CCCCC1 (centres undefined) , give the reported Ki.
Output line: 11 nM

###

target: Muscarinic acetylcholine receptor M5 (Homo sapiens, UniProt P08912)
Sequence (P08912 whole entry): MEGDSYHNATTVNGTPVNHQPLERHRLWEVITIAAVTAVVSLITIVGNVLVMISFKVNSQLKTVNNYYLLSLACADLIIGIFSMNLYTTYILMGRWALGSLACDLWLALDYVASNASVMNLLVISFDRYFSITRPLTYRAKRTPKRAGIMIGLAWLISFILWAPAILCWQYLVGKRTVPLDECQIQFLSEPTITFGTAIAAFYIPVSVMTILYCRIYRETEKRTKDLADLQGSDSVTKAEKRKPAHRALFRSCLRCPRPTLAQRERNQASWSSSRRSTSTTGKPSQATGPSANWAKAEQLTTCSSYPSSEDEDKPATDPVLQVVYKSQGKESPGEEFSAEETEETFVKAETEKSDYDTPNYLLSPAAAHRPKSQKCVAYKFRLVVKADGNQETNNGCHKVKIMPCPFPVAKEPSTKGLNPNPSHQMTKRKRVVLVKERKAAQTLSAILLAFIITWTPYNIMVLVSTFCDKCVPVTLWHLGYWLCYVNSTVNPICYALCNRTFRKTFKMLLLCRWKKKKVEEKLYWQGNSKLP
The entries below come with measured Ki values attached.
Give your result in nM as a bare value.

COc1ccccc1CNCCCCCCNCCCCCCCCNCCCCCCNCc1ccccc1OC [METHOCTRAMINE]
57
C[N+]1(C)CCN(CC(O)(c2ccccc2)C2CCCCC2)CC1 (centres undefined) [CAS_115-63-9]
3.7
O[Si](CCCN1CCCCC1)(c1ccccc1)C1CCCCC1 (centres undefined) [HHSiD]
63

Please turn your attention to the following entry.
Input line: For the compound shown here, C[N+]1([SiH3])CCN(CC(O)(c2ccccc2)C2CCCCC2)CC1 (centres undefined) [CAS_124393-85-7] , give the reported Ki.
Output line: 2
